- ASSAY_EXPLANATION: Lipophilicity, CHI in methanol by fast-gradient HPLC
- Format: physicochemical
REPORTED_METRIC: CHI (%)

[[record]]
structure = "Nc1ccccc1Nc1ccc2c(c1)CCc1cccnc1C2=O"
reported_metric = "CHI"
readout_number = 65.8

[[record]]
structure = "Nc1ccccc1Nc1ccc2c(=O)c3cccnc3ccc2c1"
reported_metric = "CHI"
readout_number = 73.4

[[record]]
structure = "O=c1c2ccc(Nc3ccc(F)cc3F)cc2ccc2ncccc12"
reported_metric = "CHI"
readout_number = 82.9

[[record]]
structure = "Nc1cc(F)ccc1Nc1ccc2c(c1)CCc1ccccc1C2=O"
reported_metric = "CHI"
readout_number = 82.8

[[record]]
structure = "Nc1ccccc1Nc1ccc2c(c1)CCc1ncccc1C2=O"
reported_metric = "CHI"
readout_number = 73.9

[[record]]
structure = "Nc1ccccc1Nc1ccc2c(=O)c3cnccc3ccc2c1"
reported_metric = "CHI"
readout_number = 71.4

[[record]]
structure = "Nc1cc(F)ccc1Nc1ccc2c(c1)OCc1ncccc1C2=O"
reported_metric = "CHI"
readout_number = 70.9

[[record]]
structure = "O=C1c2ccc(Nc3ccc(F)cc3F)cc2CCc2ncccc21"
reported_metric = "CHI"
readout_number = 81.2

[[record]]
structure = "O=C1c2ccc(Nc3ccc(F)cc3F)cc2OCc2ncccc21"
reported_metric = "CHI"
readout_number = 83.2

[[record]]
structure = "Nc1ccccc1Nc1ccc2c(c1)CCc1ccccc1C2=O"
reported_metric = "CHI"
readout_number = 82.6

[[record]]
structure = "Nc1ccccc1Nc1ccc2c(c1)OCc1ccccc1C2=O"
reported_metric = "CHI"
readout_number = 75.2

[[record]]
structure = "Nc1ccccc1Nc1ccc2c(c1)OCc1ncccc1C2=O"
reported_metric = "CHI"
readout_number = 69

